Listed compounds paired with reported melting point

Below, 3 compounds whose answers are already recorded.
> print(dat)
                                   compound  readout.label           result
1  O=C(c1ccc(Oc2ccccc2)cc1)N(Cc1ccc(C2CCCCC2)cc1)c1ccc(P(=O)(O)O)cc1 [Compound 17a]  melting point  182.7 °C (dec.)
2  O=C(c1ccc(Oc2ccccc2)cc1)N(Cc1ccc(C2CCCCC2)cc1)c1ccc(CP(=O)(O)O)cc1 [Compound 17c]  melting point    188 °C (dec.)
3  O=C(Nc1ccc(CP(=O)(O)O)cc1)c1ccc(Oc2ccccc2)cc1 [Compound 18c]  melting point         > 250 °C

// sample O=C(c1ccc(Oc2ccccc2)cc1)N(Cc1ccc(C2CCCCC2)cc1)c1cccc(CP(=O)(O)O)c1 [Compound 17d] , its melting point was 97 °C (dec.)
